Test system: patient-specific primary human glioblastoma cells (pGBMs)
experiment: Pharmacodynamic analysis of GAA and GA, AlamarBlue (IMC50)
Format: cell-based
assaySetup: pGBM #132, day 5
measuredEndpoint: pIC50
Expect pIC50 as a plain number equal to -log10 of the molar concentration.

Looking for the measured pIC50 of CC(C)=CCC[C@]1(C)C=Cc2c(O)c3c(c(CC=C(C)C)c2O1)O[C@]12C(=C[C@@H]4CC1C(C)(C)O[C@@]2(C/C=C(/C)C(N)=O)C4=O)C3=O [GAA, Gambogic acid amide] , can you help? 7.11
